Test: ACEA_AR_antagonist_AUC_viability: ACEA Biosciences xCELLigence Real-Time Cell Analysis on Androgen Receptor Antagonism for Viability (AID 2283776);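 note: 22Rv1 human prostate cancer cells growing on impedance electrode plates; area under impedance growth curve at 80 h after dosing as viability; hits lower the growth signal relative to DMSO meaning cytotoxicity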
Inconclusive results are not listed. Activity calls are given as the source filed them. Rule for the calls: active = hit-call score of the fitted dose curve at least 0.9, where 1 is the maximum; inconclusive = response in the unintended direction; inactive = score below 0.9.
# AC50 per entry

Examples from the recorded data:
> print(dat)
                                   compound        meas.value
1  C=CCC1=C(C)C(OC(=O)C2C(C=C(C)C)C2(C)C)CC1=O (stereo unspecified)  52.5 µM (active)
2  C=CC1(C)OC(=O)N(c2cc(Cl)cc(Cl)c2)C1=O (stereo unspecified)  83.7 µM (active)
3  CC1COC(Cn2cncn2)(c2ccc(Oc3ccc(Cl)cc3)cc2Cl)O1 (stereo unspecified)  30.3 µM (active)
4  Cc1ccc(-c2c(Cl)nc(C#N)n2S(=O)(=O)N(C)C)cc1  16.1 µM (active)
5  CCOC(=O)CC(SP(=S)(OC)OC)C(=O)OCC (stereo unspecified)  85.1 µM (active)

Shifting focus to the compound that follows.
// sample COC(=O)N(OC)c1ccccc1COc1ccn(-c2ccc(Cl)cc2)n1 , its AC50 was 26.8 µM (active)
